target: UniProt O75116
Sequence (O75116 whole entry): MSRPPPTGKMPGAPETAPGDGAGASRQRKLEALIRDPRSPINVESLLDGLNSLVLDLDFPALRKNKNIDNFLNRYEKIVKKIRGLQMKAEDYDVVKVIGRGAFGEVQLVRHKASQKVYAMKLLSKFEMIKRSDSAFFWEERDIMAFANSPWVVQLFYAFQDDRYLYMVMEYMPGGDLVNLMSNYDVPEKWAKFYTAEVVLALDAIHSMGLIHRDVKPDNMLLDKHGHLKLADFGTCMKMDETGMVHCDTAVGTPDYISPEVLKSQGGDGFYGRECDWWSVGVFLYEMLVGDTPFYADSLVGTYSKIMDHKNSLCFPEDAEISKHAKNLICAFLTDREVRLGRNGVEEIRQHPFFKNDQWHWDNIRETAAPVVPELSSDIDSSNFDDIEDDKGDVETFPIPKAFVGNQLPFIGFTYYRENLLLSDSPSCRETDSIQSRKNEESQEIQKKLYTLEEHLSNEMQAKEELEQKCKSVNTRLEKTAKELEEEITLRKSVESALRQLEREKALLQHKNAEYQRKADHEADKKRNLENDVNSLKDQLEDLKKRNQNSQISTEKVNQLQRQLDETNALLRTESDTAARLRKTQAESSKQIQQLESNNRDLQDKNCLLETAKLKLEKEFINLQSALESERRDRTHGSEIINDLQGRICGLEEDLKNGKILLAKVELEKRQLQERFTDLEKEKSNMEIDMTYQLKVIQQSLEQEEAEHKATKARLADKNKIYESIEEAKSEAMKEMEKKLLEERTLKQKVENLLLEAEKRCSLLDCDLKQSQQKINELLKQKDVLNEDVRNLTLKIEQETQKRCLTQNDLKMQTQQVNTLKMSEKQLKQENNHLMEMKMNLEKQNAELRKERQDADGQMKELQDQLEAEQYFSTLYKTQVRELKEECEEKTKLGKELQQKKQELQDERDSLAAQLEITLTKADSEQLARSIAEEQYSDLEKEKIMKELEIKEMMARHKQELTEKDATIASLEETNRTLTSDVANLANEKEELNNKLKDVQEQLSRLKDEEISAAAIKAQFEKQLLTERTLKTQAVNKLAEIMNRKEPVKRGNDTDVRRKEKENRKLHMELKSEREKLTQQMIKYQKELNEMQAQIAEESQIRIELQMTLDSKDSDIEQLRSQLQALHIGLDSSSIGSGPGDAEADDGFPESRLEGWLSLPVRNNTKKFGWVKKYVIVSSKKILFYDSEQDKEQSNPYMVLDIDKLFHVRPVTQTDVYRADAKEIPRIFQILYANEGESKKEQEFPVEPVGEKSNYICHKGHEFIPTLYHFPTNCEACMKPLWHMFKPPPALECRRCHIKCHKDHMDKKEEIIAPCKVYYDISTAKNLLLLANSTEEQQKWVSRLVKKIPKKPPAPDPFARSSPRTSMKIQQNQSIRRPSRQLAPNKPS
experimental-endpoint: IC50

// below: answered compounds
{"compound": "Cn1c(C(=O)N2C[C@@H](O)[C@@H](F)C2)cc2c1CN(c1nccc(Nc3ccc(-c4cn[nH]c4)cc3)n1)CC2 [Compound L024]", "IC50": "≤ 50 nM"}
{"compound": "COc1cnc(N2CCc3cc(C(=O)N4CC(F)(F)C4)n(C)c3C2)nc1Nc1ccc(-c2cn[nH]c2)cc1 [Compound L026]", "IC50": "≤ 50 nM"}
{"compound": "Cn1c(C(=O)O)cc2c1CN(c1nccc(Nc3ccc(-c4cn[nH]c4)cc3)n1)CC2 [Compound L001]", "IC50": "> 4500 nM"}
{"compound": "CN(C(=O)c1cc2c(n1C)CN(c1nccc(Nc3ccc(-c4cn[nH]c4)cc3)n1)CC2)C1CC(F)(F)C1 [Compound L014]", "IC50": "> 4500 nM"}
{"compound": "Cn1c(C(=O)N2CC(F)(F)C2)cc2c1CN(c1nc3c(c(Nc4ccc(-c5cn[nH]c5)cc4)n1)CCC3)CC2 [Compound L053]", "IC50": "50 to 500 nM"}
{"compound": "Cn1c(C(=O)N2CC(C#N)C2)cc2c1CN(c1ncc(F)c(Nc3ccc(-c4cn[nH]c4)cc3)n1)CC2 [Compound L056]", "IC50": "≤ 50 nM"}

Shifting focus to the compound that follows.
Return IC50 (reported value) for this compound: Cn1c(C(=O)N2CC(F)(F)C2)cc2c1CN(c1ncnc(Nc3ccc(-c4cn[nH]c4)cc3)n1)CC2 [Compound L036]
50 to 500 nM

====

Test: In vitro metabolic stability, rat liver microsome incubation
Format: in vitro ADME
Settings: liver microsomes, 1 mg/mL protein, 37° C., read-out: T1/2 in rat liver microsome
Protocol: The in vitro metabolic stability of the compounds disclosed herein was determined through incubation of liver microsomes of various species. A proper amount of test compound was added into a liver microsome reaction system (1 mg/mL liver microsome protein, 25 U/mL glucose-6 phosphate dehydrogenase, 1 mM NADP, 6 mM D-glucose 6-phosphate and 5 mM MgCl2), and then the mixture was incubated in a water bath kettle at 37° C. to start reaction. […]
Below, each entry is listed with its recorded half-life.
Lab book: enter the figure in min, no units written.

// below: answered compounds
{"compound": "Cn1c(C(=O)N2CC(C#N)C2)cc2c1CN(c1ncc(F)c(Nc3ccc(-c4cn[nH]c4)cc3)n1)CC2", "half-life [min]": 52.8}
{"compound": "CC(C)NC(=O)COc1cccc(-c2nc(Nc3ccc4[nH]ncc4c3)c3ccccc3n2)c1 [KD-025, reference compound]", "half-life [min]": 17.2}
{"compound": "Cn1c(C(=O)N2CC(F)(F)C2)cc2c1CN(c1nncc(Nc3ccc(-c4cn[nH]c4)cc3)n1)CC2", "half-life [min]": 33.2}

Shifting focus to the compound that follows.
Return half-life (reported value) for this compound: Cn1c(C(=O)N2CC(C(F)F)C2)cc2c1CN(c1nccc(Nc3ccc(-c4cn[nH]c4)cc3)n1)CC2
69.8

====

experiment: In vitro metabolic stability, rat liver microsome incubation; type: in vitro ADME; conditions: liver microsomes, 1 mg/mL protein, 37° C., read-out: T1/2 in rat liver microsome
Below, each entry is listed with its recorded half-life.
Lab book: enter the figure in min, no units written.

// below: answered compounds
{"entry-smiles": "Cn1c(C(=O)N2CC(F)(F)C2)cc2c1CN(c1nc(F)cc(Nc3ccc(-c4cn[nH]c4)cc3)n1)CC2", "half-life, min": 158}
{"entry-smiles": "Cn1c(C(=O)NCC(F)(F)F)cc2c1CN(c1nccc(Nc3ccc(-c4cn[nH]c4)cc3)n1)CC2", "half-life, min": 72.5}
{"entry-smiles": "Cn1c(C(=O)N2CC(F)(F)C2)cc2c1CN(c1nc(CC#N)nc(Nc3ccc(-c4cn[nH]c4)cc3)n1)CC2", "half-life, min": 65}
{"entry-smiles": "Cn1c(C(=O)N2CC(F)(F)C2)cc2c1CN(c1ncc(F)c(Nc3ccc(-c4cn[nH]c4)cc3)n1)CC2", "half-life, min": 127}
{"entry-smiles": "Cn1c(C(=O)N2CC(F)(F)C2)cc2c1CN(c1nc(Nc3ccc(-c4cn[nH]c4)cc3)c3cccn3n1)CC2", "half-life, min": 45.5}
{"entry-smiles": "Cn1c(C(=O)N2CC(F)(F)C2)cc2c1CN(c1ncnc(Nc3ccc(-c4cn[nH]c4)cc3)n1)CC2", "half-life, min": 94.4}

Shifting focus to the compound that follows.
Return half-life (reported value) for this compound: Cn1c(C(=O)OCC(F)(F)F)cc2c1CN(c1nccc(Nc3ccc(-c4cn[nH]c4)cc3)n1)CC2
42.5

====

assay: In vitro metabolic stability, guinea pig liver microsome incubation; assay type: in vitro ADME; conditions: liver microsomes, 1 mg/mL protein, 37° C., read-out: T1/2 in guinea pig liver microsome
experimental-endpoint: log10 of half-life (log10 of the value in h)
Short version: log10 scale, half-life, h.

// below: answered compounds
{"compound": "Cn1c(C(=O)N2CC(F)(F)C2)cc2c1CN(c1nc(CC#N)nc(Nc3ccc(-c4cn[nH]c4)cc3)n1)CC2", "log10 of half-life": -0.08}
{"compound": "Cn1c(C(=O)NCC(F)(F)F)cc2c1CN(c1nccc(Nc3ccc(-c4cn[nH]c4)cc3)n1)CC2", "log10 of half-life": -0.12}
{"compound": "Cn1c(C(=O)N2CC(F)(F)C2)cc2c1CN(c1nncc(Nc3ccc(-c4cn[nH]c4)cc3)n1)CC2", "log10 of half-life": 0.00}
{"compound": "Cn1c(C(=O)N2CC(C(F)(F)F)C2)cc2c1CN(c1nccc(Nc3ccc(-c4cn[nH]c4)cc3)n1)CC2", "log10 of half-life": -0.08}
{"compound": "Cc1nc(Nc2ccc(-c3cn[nH]c3)cc2)nc(N2CCc3cc(C(=O)N4CC(F)(F)C4)n(C)c3C2)n1", "log10 of half-life": 0.45}
{"compound": "CC(C)NC(=O)COc1cccc(-c2nc(Nc3ccc4[nH]ncc4c3)c3ccccc3n2)c1 [KD-025, reference compound]", "log10 of half-life": 0.21}
{"compound": "Cn1c(C(=O)N2CC(F)(F)C2)cc2c1CN(c1nc(F)cc(Nc3ccc(-c4cn[nH]c4)cc3)n1)CC2", "log10 of half-life": -0.01}
{"compound": "Cn1c(C(=O)OCC(F)(F)F)cc2c1CN(c1nccc(Nc3ccc(-c4cn[nH]c4)cc3)n1)CC2", "log10 of half-life": -0.25}

Return log10 of half-life (reported value) for this compound: Cn1c(C(=O)N2CC(F)(F)C2)cc2c1CN(c1nc(Nc3ccc(-c4cn[nH]c4)cc3)c3cccn3n1)CC2
0.34

Return log10 of half-life (reported value) for this compound: Cn1c(C(=O)N2CC(C#N)C2)cc2c1CN(c1ncc(F)c(Nc3ccc(-c4cn[nH]c4)cc3)n1)CC2
-0.15

Return log10 of half-life (reported value) for this compound: Cn1c(C(=O)N2CC(F)(F)C2)cc2c1CN(c1ncnc(Nc3ccc(-c4cn[nH]c4)cc3)n1)CC2
0.10

Return log10 of half-life (reported value) for this compound: COc1cnc(N2CCc3cc(C(=O)N4CC(F)(F)C4)n(C)c3C2)nc1Nc1ccc(-c2cn[nH]c2)cc1
-0.33

Return log10 of half-life (reported value) for this compound: Cn1c(C(=O)N2CC(F)(F)C2)cc2c1CN(c1nc(C#N)cc(Nc3ccc(-c4cn[nH]c4)cc3)n1)CC2
0.76

Return log10 of half-life (reported value) for this compound: Cc1nc(Nc2ccc(-c3cn[nH]c3)cc2)nc(N2CCc3cc(C(=O)N4CC(C#N)C4)n(C)c3C2)n1
0.03

Return log10 of half-life (reported value) for this compound: Cn1c(C(=O)N2CC(F)(F)C2)cc2c1CN(c1ncc(F)c(Nc3ccc(-c4cn[nH]c4)cc3)n1)CC2
1.01

Return log10 of half-life (reported value) for this compound: COc1nnc(N2CCc3cc(C(=O)N4CC(F)(F)C4)n(C)c3C2)nc1Nc1ccc(-c2cn[nH]c2)cc1
0.15

Return log10 of half-life (reported value) for this compound: Cn1c(C(=O)N2CC(C(F)F)C2)cc2c1CN(c1nccc(Nc3ccc(-c4cn[nH]c4)cc3)n1)CC2
-0.01

Return log10 of half-life (reported value) for this compound: Cn1c(C(=O)N2CC(F)(F)C2)cc2c1CN(c1nccc(Nc3ccc(-c4cn[nH]c4)cc3)n1)CC2
0.03

====

assay: In vitro cytotoxicity assay in HepG2 cells using the CCK-8 method; format: cell-based; conditions: human
Below, each entry is listed with its recorded CC50 at 48 h.
Lab book: enter the figure in µM, no units written.

// below: answered compounds
{"compound": "Cn1c(C(=O)N2CC(F)(F)C2)cc2c1CN(c1nc(C#N)cc(Nc3ccc(-c4cn[nH]c4)cc3)n1)CC2 [Compound L042]", "unit-abbreviation": "µM", "CC50 at 48 h": 27.9}
{"compound": "Cn1c(C(=O)N2CC(F)(F)C2)cc2c1CN(c1nc3c(c(Nc4ccc(-c5cn[nH]c5)cc4)n1)COCC3)CC2 [Compound L031]", "unit-abbreviation": "µM", "CC50 at 48 h": 33.4}
{"compound": "CCc1nc(Nc2ccc(-c3cn[nH]c3)cc2)nc(N2CCc3cc(C(=O)N4CC(F)(F)C4)n(C)c3C2)n1 [Compound L048]", "unit-abbreviation": "µM", "CC50 at 48 h": 100}

Shifting focus to the compound that follows.
Return CC50 at 48 h (reported value) for this compound: Cc1nc(Nc2ccc(-c3cn[nH]c3)cc2)nc(N2CCc3cc(C(=O)N4CC(F)(F)C4)n(C)c3C2)n1 [Compound L044]
58.1
